Molecular target: TYK2 (Homo sapiens, UniProt P29597)
Construct: endogenous in cells; host or cells: Molt4 (ATCC CRL-1582) and Ramos (ATCC CRL-1596), mixed lysate 1:2
Sequence (P29597 whole entry): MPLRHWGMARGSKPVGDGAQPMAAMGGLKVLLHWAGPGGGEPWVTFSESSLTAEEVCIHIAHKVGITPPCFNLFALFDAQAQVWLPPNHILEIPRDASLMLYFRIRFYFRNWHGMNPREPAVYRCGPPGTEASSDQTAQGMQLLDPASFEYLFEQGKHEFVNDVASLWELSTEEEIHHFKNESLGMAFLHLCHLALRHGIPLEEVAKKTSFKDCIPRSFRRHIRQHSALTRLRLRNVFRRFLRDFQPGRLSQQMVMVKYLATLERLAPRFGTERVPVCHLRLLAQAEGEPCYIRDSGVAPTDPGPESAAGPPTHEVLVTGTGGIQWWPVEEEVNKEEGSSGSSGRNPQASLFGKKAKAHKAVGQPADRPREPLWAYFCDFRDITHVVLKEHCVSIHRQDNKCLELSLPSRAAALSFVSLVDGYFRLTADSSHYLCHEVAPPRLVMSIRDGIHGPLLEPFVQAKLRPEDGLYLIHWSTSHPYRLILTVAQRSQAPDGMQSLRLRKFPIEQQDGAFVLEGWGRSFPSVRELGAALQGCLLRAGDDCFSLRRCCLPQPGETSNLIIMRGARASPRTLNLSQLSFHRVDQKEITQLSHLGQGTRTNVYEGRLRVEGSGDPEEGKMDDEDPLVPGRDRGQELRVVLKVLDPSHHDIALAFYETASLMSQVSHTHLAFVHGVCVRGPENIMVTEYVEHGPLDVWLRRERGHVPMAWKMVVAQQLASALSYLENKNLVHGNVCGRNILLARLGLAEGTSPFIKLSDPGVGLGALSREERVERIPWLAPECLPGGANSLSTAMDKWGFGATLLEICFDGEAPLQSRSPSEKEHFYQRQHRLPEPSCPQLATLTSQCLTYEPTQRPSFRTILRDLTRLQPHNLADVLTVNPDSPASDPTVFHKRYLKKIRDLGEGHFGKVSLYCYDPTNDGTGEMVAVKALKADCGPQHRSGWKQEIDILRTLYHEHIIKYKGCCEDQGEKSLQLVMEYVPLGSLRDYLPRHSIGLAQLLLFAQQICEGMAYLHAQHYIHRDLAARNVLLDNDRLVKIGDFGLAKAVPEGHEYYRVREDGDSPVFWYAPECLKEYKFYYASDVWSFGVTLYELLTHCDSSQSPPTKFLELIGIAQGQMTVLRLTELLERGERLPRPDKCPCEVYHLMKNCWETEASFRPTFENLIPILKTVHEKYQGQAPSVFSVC
Assay: Kinobeads assay, TYK2 (competition binding in mixed Molt4/Ramos cell lysate, dot blot detection)
Details: Kinobeads assay, Molt4/Ramos lysate; read-out: TYK2 Band (Kinobeads assay potency, IC50)

- COMPOUND: "Cn1cc(Nc2nccc(NCc3c(F)cncc3F)n2)cn1 [Example I-148]"
  SYSTEM: "TYK2 (Homo sapiens, UniProt P29597)"
  IC50: "10 to 100 nM"
- COMPOUND: "CC1(C)CN(C(=O)Cn2cc(Nc3nccc(NCc4c(F)cc(F)cc4F)n3)cn2)C1 [Example I-458]"
  SYSTEM: "TYK2 (Homo sapiens, UniProt P29597)"
  IC50: "10 to 100 nM"
- COMPOUND: "NC(=O)Cn1cc(Nc2ncc(Cl)c(NCc3c(F)cc(F)cc3F)n2)cn1 [Example I-387]"
  SYSTEM: "TYK2 (Homo sapiens, UniProt P29597)"
  IC50: "10 to 100 nM"
- COMPOUND: "Cc1cnc(Nc2cnn(C)c2)nc1NCc1c(F)ccc(F)c1F [Example I-420]"
  SYSTEM: "TYK2 (Homo sapiens, UniProt P29597)"
  IC50: "10 to 100 nM"
- COMPOUND: "CN1CCC(n2cc(Nc3ncc(Cl)c(NCc4ccccc4)n3)cn2)C1=O (centres unmarked) [Example I-253]"
  SYSTEM: "TYK2 (Homo sapiens, UniProt P29597)"
  IC50: "100 to 1000 nM"
- COMPOUND: "CN(Cc1cccc(CNc2nc(Nc3cnn(CCO)c3)ncc2Cl)c1)S(C)(=O)=O [Example I-398]"
  SYSTEM: "TYK2 (Homo sapiens, UniProt P29597)"
  IC50: "100 to 1000 nM"
- COMPOUND: "Cc1cnc(Nc2cnn(CC(F)(F)F)c2)nc1NCc1cc(F)ccc1F [Example I-353]"
  SYSTEM: "TYK2 (Homo sapiens, UniProt P29597)"
  IC50: "100 to 1000 nM"
- COMPOUND: "CS(=O)(=O)c1ccccc1CNc1nc(Nc2cnn(CC(F)(F)F)c2)ncc1Cl [Example I-475]"
  SYSTEM: "TYK2 (Homo sapiens, UniProt P29597)"
  IC50: "1000 to 10000 nM"
- COMPOUND: "CC(C)N(C)C(=O)Cn1cc(Nc2ncc(F)c(NCc3c(F)cc(F)cc3F)n2)cn1 [Example I-59]"
  SYSTEM: "TYK2 (Homo sapiens, UniProt P29597)"
  IC50: "≤ 10 nM"
- COMPOUND: "COc1ccc(F)c(CNc2nc(Nc3cnn(CC(=O)O)c3)ncc2Cl)c1F [Example I-295]"
  SYSTEM: "TYK2 (Homo sapiens, UniProt P29597)"
  IC50: "10 to 100 nM"
- COMPOUND: "Cc1cnc(Nc2cnn(CCO)c2)nc1NCc1c(F)cc(F)cc1F [Example I-303]"
  SYSTEM: "TYK2 (Homo sapiens, UniProt P29597)"
  IC50: "10 to 100 nM"
- COMPOUND: "COc1ccc(Cl)c(CNc2ccnc(Nc3cnn(CC(=O)N[C@@H](C)CO)c3)n2)c1F [Example I-122]"
  SYSTEM: "TYK2 (Homo sapiens, UniProt P29597)"
  IC50: "≤ 10 nM"
- COMPOUND: "COCCNC(=O)Cn1cc(Nc2ncc(Cl)c(NCc3ccccc3)n2)cn1 [Example I-273]"
  SYSTEM: "TYK2 (Homo sapiens, UniProt P29597)"
  IC50: "100 to 1000 nM"
- COMPOUND: "CS(=O)(=O)c1cccc(CNc2nc(Nc3cnn(CCO)c3)ncc2Cl)c1 [Example I-363]"
  SYSTEM: "TYK2 (Homo sapiens, UniProt P29597)"
  IC50: "100 to 1000 nM"
- COMPOUND: "CCNC(=O)Cn1cc(Nc2nccc(NCc3c(F)cc(F)cc3F)n2)cn1 [Example I-6]"
  SYSTEM: "TYK2 (Homo sapiens, UniProt P29597)"
  IC50: "10 to 100 nM"
- COMPOUND: "CC(C)NC(=O)Cn1cc(Nc2nccc(NCc3c(Cl)ccc(F)c3Cl)n2)cn1 [Example I-119]"
  SYSTEM: "TYK2 (Homo sapiens, UniProt P29597)"
  IC50: "10 to 100 nM"
- COMPOUND: "COc1ccccc1CNc1nc(Nc2cnn(C)c2)ncc1Cl [Example I-228]"
  SYSTEM: "TYK2 (Homo sapiens, UniProt P29597)"
  IC50: "100 to 1000 nM"
- COMPOUND: "CS(=O)(=O)c1ccc(F)c(CNc2nc(Nc3cn[nH]c3)ncc2Cl)c1 [Example I-98]"
  SYSTEM: "TYK2 (Homo sapiens, UniProt P29597)"
  IC50: "10 to 100 nM"
- COMPOUND: "Cn1cc(Nc2ncc(F)c(NCc3cc(F)ccc3S(C)(=O)=O)n2)cn1 [Example I-487]"
  SYSTEM: "TYK2 (Homo sapiens, UniProt P29597)"
  IC50: "100 to 1000 nM"
- COMPOUND: "CN(C)C(=O)Cn1cc(Nc2ncc(F)c(NCc3cccc(OC(F)F)c3)n2)cn1 [Example I-14]"
  SYSTEM: "TYK2 (Homo sapiens, UniProt P29597)"
  IC50: "10 to 100 nM"
- COMPOUND: "CC(C)N(C)C(=O)Cn1cc(Nc2nccc(NCc3c(F)cc(F)cc3F)n2)cn1 [Example I-317]"
  SYSTEM: "TYK2 (Homo sapiens, UniProt P29597)"
  IC50: "10 to 100 nM"
- COMPOUND: "COc1cc(F)c(CNc2nc(Nc3cnn(C)c3)ncc2C)c(F)c1 [Example I-314]"
  SYSTEM: "TYK2 (Homo sapiens, UniProt P29597)"
  IC50: "10 to 100 nM"
- COMPOUND: "O=C(Cn1cc(Nc2nccc(NCc3c(F)cccc3Cl)n2)cn1)NC1CC1 [Example I-139]"
  SYSTEM: "TYK2 (Homo sapiens, UniProt P29597)"
  IC50: "≤ 10 nM"

----------
Each record here notes measured pIC50.
Biological target: JAK2 (Homo sapiens, UniProt O60674)
Construct: endogenous in cells
Sequence (O60674 whole entry): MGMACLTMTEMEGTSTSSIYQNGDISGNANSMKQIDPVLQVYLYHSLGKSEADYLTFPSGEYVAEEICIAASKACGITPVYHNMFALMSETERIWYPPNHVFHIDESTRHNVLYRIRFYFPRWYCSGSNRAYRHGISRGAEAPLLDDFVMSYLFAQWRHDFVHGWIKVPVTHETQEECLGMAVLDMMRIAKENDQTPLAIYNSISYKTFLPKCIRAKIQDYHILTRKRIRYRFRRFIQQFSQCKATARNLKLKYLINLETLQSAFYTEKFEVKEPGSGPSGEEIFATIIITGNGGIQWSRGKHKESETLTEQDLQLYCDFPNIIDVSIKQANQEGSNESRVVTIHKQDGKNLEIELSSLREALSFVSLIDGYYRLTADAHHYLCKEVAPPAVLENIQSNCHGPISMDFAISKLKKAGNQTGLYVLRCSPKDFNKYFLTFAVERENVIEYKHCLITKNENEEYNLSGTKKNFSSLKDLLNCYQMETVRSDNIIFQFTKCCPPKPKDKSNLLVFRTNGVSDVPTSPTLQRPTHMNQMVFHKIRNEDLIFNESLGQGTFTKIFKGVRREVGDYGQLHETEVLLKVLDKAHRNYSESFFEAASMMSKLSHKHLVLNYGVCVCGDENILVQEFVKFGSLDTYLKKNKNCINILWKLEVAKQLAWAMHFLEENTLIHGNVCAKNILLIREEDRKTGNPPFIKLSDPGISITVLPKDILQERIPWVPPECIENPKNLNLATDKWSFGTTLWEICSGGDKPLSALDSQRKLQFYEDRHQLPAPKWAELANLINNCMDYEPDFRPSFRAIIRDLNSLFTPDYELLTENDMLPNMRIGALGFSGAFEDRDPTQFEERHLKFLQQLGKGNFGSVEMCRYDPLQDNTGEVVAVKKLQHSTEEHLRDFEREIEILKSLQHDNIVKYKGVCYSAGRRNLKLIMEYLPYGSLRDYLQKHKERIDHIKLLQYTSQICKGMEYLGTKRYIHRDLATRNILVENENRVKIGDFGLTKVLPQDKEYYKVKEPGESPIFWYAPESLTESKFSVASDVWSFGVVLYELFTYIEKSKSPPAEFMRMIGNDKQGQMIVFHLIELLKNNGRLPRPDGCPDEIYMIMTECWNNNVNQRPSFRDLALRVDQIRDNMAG
Experiment: Kinobeads assay, JAK2 (competition binding in mixed Molt4/Ramos cell lysate, dot blot detection)
Details: read-out: JAK2 Band (Kinobeads assay potency, IC50)
pIC50: −log10 of the molar value.
MEASURED_PARAMETER: pIC50

- COMPOUND: "C[C@@H](CO)NC(=O)Cn1cc(Nc2nccc(NCc3c(F)cc(F)cc3F)n2)cn1"
  MEASURED_PARAMETER: "pIC50"
  RESULT: "< 5.00"
- COMPOUND: "CNC(=O)Cn1cc(Nc2ncc(Cl)c(NCc3cc(C(F)(F)F)ccc3F)n2)cn1"
  MEASURED_PARAMETER: "pIC50"
  RESULT: "6.00 to 7.00"
- COMPOUND: "Fc1cccc(F)c1CNc1nc(Nc2cnn(Cc3ncco3)c2)ncc1Cl"
  MEASURED_PARAMETER: "pIC50"
  RESULT: "5.00 to 6.00"
- COMPOUND: "OCCn1cc(Nc2ncc(Cl)c(NCc3c(Cl)cccc3Cl)n2)cn1"
  MEASURED_PARAMETER: "pIC50"
  RESULT: "6.00 to 7.00"
- COMPOUND: "COc1cc(F)c(CNc2ccnc(Nc3cnn(CC(=O)NC(C)C)c3)n2)c(F)c1"
  MEASURED_PARAMETER: "pIC50"
  RESULT: "< 5.00"
- COMPOUND: "CNC(=O)Cn1cc(Nc2ncc(Cl)c(NCc3c(F)ccc(C)c3F)n2)cn1"
  MEASURED_PARAMETER: "pIC50"
  RESULT: "5.00 to 6.00"
- COMPOUND: "CC(C)N(C)C(=O)Cn1cc(Nc2ncc(F)c(NCc3cccc(OC(F)F)c3)n2)cn1"
  MEASURED_PARAMETER: "pIC50"
  RESULT: "< 5.00"
- COMPOUND: "COc1ccc(F)c(CNc2ccnc(Nc3cnn(CC(=O)NC4CC4)c3)n2)c1F"
  MEASURED_PARAMETER: "pIC50"
  RESULT: "5.00 to 6.00"
- COMPOUND: "COc1c(F)cccc1CNc1nc(Nc2cnn(CC(=O)O)c2)ncc1Cl"
  MEASURED_PARAMETER: "pIC50"
  RESULT: "5.00 to 6.00"
- COMPOUND: "N#CC1CCCN1C(=O)Cn1cc(Nc2ncc(Cl)c(NCc3ccccc3)n2)cn1 (stereo not shown)"
  MEASURED_PARAMETER: "pIC50"
  RESULT: "6.00 to 7.00"
- COMPOUND: "CC(NC(=O)Cn1cc(Nc2nccc(NCc3c(F)cc(F)cc3F)n2)cn1)C1CCCO1 (stereo not shown)"
  MEASURED_PARAMETER: "pIC50"
  RESULT: "< 5.00"
- COMPOUND: "OCCn1cc(Nc2ncc(Cl)c(NCc3cccc(OC(F)F)c3)n2)cn1"
  MEASURED_PARAMETER: "pIC50"
  RESULT: "5.00 to 6.00"
- COMPOUND: "COc1ccc(F)c(CNc2ccnc(Nc3cnn(CC(=O)N[C@H](C)CO)c3)n2)c1F"
  MEASURED_PARAMETER: "pIC50"
  RESULT: "5.00 to 6.00"
- COMPOUND: "Fc1cc(F)c(CNc2nc(Nc3cnn(CC(F)F)c3)ncc2F)c(F)c1"
  MEASURED_PARAMETER: "pIC50"
  RESULT: "< 5.00"
- COMPOUND: "CS(=O)(=O)c1ccccc1CNc1nc(Nc2cnn(CC3CC3)c2)ncc1Cl"
  MEASURED_PARAMETER: "pIC50"
  RESULT: "5.00 to 6.00"
- COMPOUND: "COc1c(F)cccc1CNc1nc(Nc2cnn(CC(N)=O)c2)ncc1Cl"
  MEASURED_PARAMETER: "pIC50"
  RESULT: "6.00 to 7.00"
- COMPOUND: "O=C(Cn1cc(Nc2ncc(Cl)c(NCc3cccnc3)n2)cn1)N1CCOCC1"
  MEASURED_PARAMETER: "pIC50"
  RESULT: "5.00 to 6.00"
- COMPOUND: "OCCn1cc(Nc2ncc(Cl)c(NCc3ccc(C(F)(F)F)cc3F)n2)cn1"
  MEASURED_PARAMETER: "pIC50"
  RESULT: "7.00 to 8.00"
- COMPOUND: "Cc1cnc(Nc2cnn(CC(F)F)c2)nc1NCc1ccccc1S(C)(=O)=O"
  MEASURED_PARAMETER: "pIC50"
  RESULT: "< 5.00"
